FYI, the data here is from the RNAGym collection of RNA variant scans (doi:10.1073/pnas.2313332121).

B1: TPR 5TU (parent)
chain: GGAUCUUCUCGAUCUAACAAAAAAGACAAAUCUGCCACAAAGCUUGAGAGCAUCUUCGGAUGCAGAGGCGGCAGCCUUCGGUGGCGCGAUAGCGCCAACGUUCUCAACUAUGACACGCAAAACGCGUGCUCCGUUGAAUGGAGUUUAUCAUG

- Variants of: B1
- ASSAY_NOTES: polymerase ribozyme fitness, log enrichment relative to wild type (log ratio); higher = more active; in vitro selection for triplet polymerase activity
Variants at the floor of the assay were thinned out.
t means recorded polymerase ribozyme fitness (log ratio) is -3 or above; f means it is below -3.

See these solved cases before continuing.
{"VARIANT_DESCRIPTION": "C5G A21U A49G C93A A137U", "ANSWER_LABEL": "f"}
{"VARIANT_DESCRIPTION": "G80U U148C", "ANSWER_LABEL": "f"}
{"VARIANT_DESCRIPTION": "A37C C95G", "ANSWER_LABEL": "t"}

Q: Would you say U90A C125G A147C U148C shows polymerase ribozyme fitness (log ratio) at minimum -3?
A: f

Q: Ok, now U15G A37C A47C C95U
A: t

Q: Ok, now G59C A60C U77A C85A G140A U144C
A: f

Q: Ok, now G46C C85U A110U
A: f

Q: Ok, now U13A C85U U135A
A: t

Q: Ok, now A39G U55A C96A A97U
A: f

Q: Ok, now A23U C51U C93U G100U C123G
A: f

Q: Ok, now C14U U45A A91U U127G
A: f

Q: Ok, now A30G A91U A137G G141U
A: f

Q: Ok, now G65C A89C G92A U102G C116U A137G
A: f

Q: Ok, now A37U U55A G58C A142U
A: t

Q: Ok, now A12C A60U C75G G88C A91G U109G
A: f

Q: Ok, now A49C C79U U151G
A: f

Q: Ok, now U55G A137C
A: f

Q: Ok, now A41C A49C G50U C51A G92C A106G
A: f

Q: Ok, now C93U C99U
A: t

Q: Ok, now U4C U31C C76G C116G
A: f

Q: Ok, now C54U G86A
A: t

Q: Ok, now A52U U53G U61A A91G U130G U144G
A: f

Q: Ok, now C14G A24U
A: f

Q: Ok, now G11C U31C G59C C76A G84U U104A A107U
A: f
